Target: Factor XIa (Homo sapiens, UniProt P03951)
Construct: purchased Haematologic Technologies Inc. (Essex Jct., Vt.)
Sequence (P03951 388-625 limits assumed): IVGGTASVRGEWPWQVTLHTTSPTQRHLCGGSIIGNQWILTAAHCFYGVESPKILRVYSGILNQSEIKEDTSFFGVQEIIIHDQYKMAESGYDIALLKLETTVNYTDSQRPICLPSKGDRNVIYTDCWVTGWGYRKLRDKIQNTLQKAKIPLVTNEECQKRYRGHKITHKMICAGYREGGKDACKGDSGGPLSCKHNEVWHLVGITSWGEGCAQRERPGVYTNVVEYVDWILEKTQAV
Sequence (P03951 19-387 limits assumed): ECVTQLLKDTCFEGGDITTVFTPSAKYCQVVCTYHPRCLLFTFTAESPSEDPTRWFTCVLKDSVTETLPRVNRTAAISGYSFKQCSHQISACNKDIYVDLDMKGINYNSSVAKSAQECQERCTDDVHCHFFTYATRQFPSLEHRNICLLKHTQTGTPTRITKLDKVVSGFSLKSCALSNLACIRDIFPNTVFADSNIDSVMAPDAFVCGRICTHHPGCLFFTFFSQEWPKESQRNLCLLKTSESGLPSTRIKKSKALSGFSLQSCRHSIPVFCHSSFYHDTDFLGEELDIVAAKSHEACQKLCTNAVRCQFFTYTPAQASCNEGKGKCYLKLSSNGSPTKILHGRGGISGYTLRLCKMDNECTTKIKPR
Assay: Specificity assay, Factor XIa
Assay type: biochemical
Conditions: 100 nM inhibitor; FXIa […], 0.7 mM S2366, 1 mg/mL BSA
measurement label: fraction of remaining proteolytic activity, Factor XIa

substance | number
KALI-13: APPI Kunitz domain mutant, R1 SGHCRAAIPR2 FR3 (SEQ ID NO: 1) (VREVCSEQAESGHCRAAIPRWYFDVTEGKCAPFFYGGCGGNRNNFDTEEYCAAVCGSA) | 0.01
KALI-48: APPI Kunitz domain mutant, R1 TGHCRAAIPR2 FR3 (SEQ ID NO: 2) (VREVCSEQAETGHCRAAIPRWYFDVTEGKCAPFFYGGCGGNRNNFDTEEYCAAVCGSA) | 0.01
KALI-46: APPI Kunitz domain mutant, R1 EGRCRASILR2 FR3 (SEQ ID NO: 33) (VREVCSEQAEEGRCRASILRWYFDVTEGKCAPFFYGGCGGNRNNFDTEEYCAAVCGSA) | 0.00
KALI-8: APPI Kunitz domain mutant, R1 LGHCRAAIPR2 FR3 (SEQ ID NO: 3) (VREVCSEQAELGHCRAAIPRWYFDVTEGKCAPFFYGGCGGNRNNFDTEEYCAAVCGSA) | 0.00
KALI-30: APPI Kunitz domain mutant, R1 EGHCRAAILR2 FR3 (SEQ ID NO: 5) (VREVCSEQAEEGHCRAAILRWYFDVTEGKCAPFFYGGCGGNRNNFDTEEYCAAVCGSA) | 0.00
